This section presents compounds with their documented Kd values.
MEASUREMENT_TARGET: LUSH (Drosophila melanogaster, UniProt O02372)
Sequence (O02372 30-153): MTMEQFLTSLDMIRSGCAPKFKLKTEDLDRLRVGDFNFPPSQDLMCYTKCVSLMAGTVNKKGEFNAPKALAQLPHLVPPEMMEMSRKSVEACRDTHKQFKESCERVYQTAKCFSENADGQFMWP
Type: binding
Give your result in nM as a bare value.

{"COMPOUND": "CCC/C=C\\C=C\\CCCCCCCCCO [bombykol]", "Kd [nM]": 215}

From here, focus on the item given below.
Req: Please look up its Kd: CCCCCC/C=C\CCCCCCCCCCOC(C)=O [cVA, 11-cis vaccenyl acetate]
Resp: 108
